Hey, just so you know, these numbers are from patent US20230172204A1.

- System: Phakopsora pachyrhizi (F129L)
- EXPERIMENTAL_DETAILS: Protective control of soybean rust on soybeans (PHAKPA P6)
- Type: in vivo
- TEST_CONTEXT: protective P6, 4 ppm, soybean rust F129L
% PHAKPA (F129L) Disease level P6 at 4 ppm less than 60% is True; % PHAKPA (F129L) Disease level P6 at 4 ppm greater than or equal to 60% is False.

- CO/N=C(/C(=O)OC)c1cccc(C)c1CO/N=C(\C)c1cccc(Br)c1F: True
- CO/N=C(/C(=O)OC)c1cccc(C)c1CO/N=C(\C)c1ccc(Cl)c(Cl)c1: False
- C=Cc1cccc(/C(=N\OC)C(=O)OC)c1CO/N=C(\C)c1cccc(C(F)(F)F)c1: True
- CNC(=O)/C(=N/OC)c1cccc(C)c1CO/N=C(\C)c1ccccc1CC(F)(F)F: True
- CNC(=O)/C(=N/OC)c1cccc(C)c1CO/N=C(\C)c1ccccc1OC: False
- CO/N=C(/C(=O)OC)c1cccc(C)c1CO/N=C(\C)c1ccccc1OC: False
- CO/N=C(/C(=O)OC)c1cccc(C)c1CO/N=C(\C)c1ccccc1Br: False
